System: KKA^y mice
Assay: Blood glucose and blood lipid (triglyceride) lowering action in mice
Assay type: in vivo
Conditions: Mus musculus, po, 96 h, 0.005% in powder diet, 4 days, lowering rate of plasma triglyceride, non-administration group = 100%, read-out: hypolipidemic action (%)
Description: The test compound was mixed with a powder diet (CE-2, CLEA JAPAN, INC.) at a proportion of 0.005% (0.01% for the compound of Example 105) and freely given to KKA^y mice (9 to 12-week-old, 5 mice per group) which are obesity-insulin independent diabetes mellitus (type-2 diabetes) models, for 4 days. During this period, water was freely given. The blood was drawn from the orbital venous plexus. […]
Catalogue of compounds with associated inhibition in vivo at 0.005 %
# output: number + unit

Ask: Value wanted: inhibition in vivo at 0.005 % (KKA^y mice) of entry CC(C)c1cc(CCCOc2ncccc2CC(=O)O)n(Cc2ccc(C(F)(F)F)cc2Cl)n1
Result: 42%

Ask: Value wanted: inhibition in vivo at 0.005 % (KKA^y mice) of entry COCCOc1ccc(CCCOc2nn(C)cc2CC(=O)O)c(Oc2ncc(C(F)(F)F)cc2Cl)c1
Result: 33%

====

Catalogue of compounds with associated melting point

Sample records with melting point:
COMPOUND	melting point
CC(C)Oc1cc(COc2ccc(C(F)(F)F)cc2)cc(COc2cc(CCC(=O)O)n(-c3ccccc3)n2)c1 [Example 202]	55 to 58 °C
CC(C)Oc1cc(CCCOc2ccc3ccccc3c2CC(=O)O)n(Cc2ccc(Cl)cc2Cl)n1 [Example 85]	120 to 122 °C
Cc1cc(C(F)(F)F)ccc1Cn1nc(OC(C)C)cc1CCCOc1ncccc1CC(=O)O [Example 80]	105 to 107 °C
CCc1cccc(CC(=O)O)c1OCCCc1cn(Cc2nc(-c3ccccc3)oc2C)nc1C(C)C [Example 54]	94 to 95 °C
CC(C)Oc1ccc(CCCOc2cc(CCC(=O)O)n(-c3ccccc3)n2)c(OCc2ccc(Cl)cc2Cl)c1 [Example 160]	139 to 141 °C

Ask: Quick check: melting point of COc1cccc(CC(=O)O)c1OCc1cc(OC(C)C)nn1Cc1ccc2ccccc2n1 [Example 8] ?
Result: 129 to 130 °C

Ask: Quick check: melting point of CCOCc1cc(COc2cc(CCC(=O)O)n(-c3ccccc3)n2)cc(Oc2ncc(C(F)(F)F)cc2Cl)c1 [Example 199] ?
Result: 124 to 128 °C

====

Catalogue of compounds with associated pEC50
Molecular target: PPARγ-RXRα heterodimer (Homo sapiens, UniProt P37231)
Sequence (P37231 whole entry, one chain of several): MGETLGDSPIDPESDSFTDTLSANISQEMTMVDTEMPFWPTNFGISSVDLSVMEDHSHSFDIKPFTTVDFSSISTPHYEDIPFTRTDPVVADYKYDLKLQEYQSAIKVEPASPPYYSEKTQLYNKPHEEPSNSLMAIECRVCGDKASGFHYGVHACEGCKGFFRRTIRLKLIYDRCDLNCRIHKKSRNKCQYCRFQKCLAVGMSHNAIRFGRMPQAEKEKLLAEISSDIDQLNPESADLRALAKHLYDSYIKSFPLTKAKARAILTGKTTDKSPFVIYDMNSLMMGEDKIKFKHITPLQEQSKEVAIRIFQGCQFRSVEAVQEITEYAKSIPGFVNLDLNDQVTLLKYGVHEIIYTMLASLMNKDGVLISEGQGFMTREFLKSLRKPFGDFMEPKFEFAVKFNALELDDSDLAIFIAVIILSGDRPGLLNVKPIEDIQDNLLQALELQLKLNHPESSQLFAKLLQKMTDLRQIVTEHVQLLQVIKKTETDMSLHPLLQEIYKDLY
Test: PPARγ-RXRα heterodimer ligand activity (luciferase reporter)
Conditions: PPARγ:RXRα:4ERPP/CHO-K1 cells, 18-24 hr, concentration showing 50% of the maximum induction rate
Where a name gives a salt, the structure may show the parent alone.
By convention, pEC50 is the negative base-10 log of a molar concentration.

Sample records with pEC50:
COMPOUND	pEC50
Cc1cc(C(F)(F)F)ccc1Cn1nc(OC(C)C)cc1CCCOc1nn(Cc2ccccc2)cc1CC(=O)O	8.89
CC(C)Oc1cc(CCCOc2nn(Cc3ccccc3)cc2CC(=O)O)n(Cc2ccc(Cl)cc2Cl)n1	8.60
CC(C)Oc1ccc(CCCOc2nn(C)cc2CC(=O)O)c(Oc2ncc(C(F)(F)F)cc2Cl)c1	8.80

Ask: Quick check: pEC50 of COc1cccc(CC(=O)O)c1OCCCc1cc(OC(C)C)nn1Cc1ccc(F)cc1Cl ?
Result: 7.96

Ask: Quick check: pEC50 of COCOc1ccc(CCCOc2nn(Cc3ccccc3)cc2CC(=O)O)c(Oc2ncc(C(F)(F)F)cc2Cl)c1 ?
Result: 9.24

Ask: Quick check: pEC50 of COc1cccc(CC(=O)O)c1OCCCc1cc(OC(C)C)nn1Cc1ccccc1C ?
Result: 7.39

Ask: Quick check: pEC50 of CC(C)c1cc(CCCOc2nn(Cc3ccccc3)cc2CC(=O)O)n(Cc2ccc(C(F)(F)F)cc2Cl)n1 [Example 76, calcium salt] ?
Result: 8.82

Ask: Quick check: pEC50 of COc1cccc(CC(=O)O)c1OCCCc1cc(OC(C)C)nn1Cc1ccc(Cl)cc1C ?
Result: 8.22

Ask: Quick check: pEC50 of CC(C)Oc1cc(CCCOc2cc(CCC(=O)O)n(-c3ccccc3)n2)cc(COc2ccc(Cl)cc2Cl)c1 ?
Result: 7.80

Ask: Quick check: pEC50 of CCS(=O)(=O)CCOc1cc(CCCOc2nn(Cc3ccccc3)cc2CC(=O)O)n(Cc2ccc(Cl)cc2Cl)n1 ?
Result: 8.29

Ask: Quick check: pEC50 of CC(C)c1cc(CCCOc2ncccc2CC(=O)O)n(Cc2ccc(Cl)cc2Cl)n1 ?
Result: 8.19

Ask: Quick check: pEC50 of CC(C)c1cc(CCCOc2nn(Cc3ccccc3)cc2CC(=O)O)n(Cc2ccc(Cl)cc2Cl)n1 [Example 34, calcium salt] ?
Result: 8.77

Ask: Quick check: pEC50 of CC(C)Oc1cc(CCCOc2ncccc2CC(=O)O)n(Cc2ccc(F)cc2Cl)n1 ?
Result: 7.38

====

Target: PPARδ-RXRα heterodimer (Homo sapiens)
Sequence (Q03181 whole entry): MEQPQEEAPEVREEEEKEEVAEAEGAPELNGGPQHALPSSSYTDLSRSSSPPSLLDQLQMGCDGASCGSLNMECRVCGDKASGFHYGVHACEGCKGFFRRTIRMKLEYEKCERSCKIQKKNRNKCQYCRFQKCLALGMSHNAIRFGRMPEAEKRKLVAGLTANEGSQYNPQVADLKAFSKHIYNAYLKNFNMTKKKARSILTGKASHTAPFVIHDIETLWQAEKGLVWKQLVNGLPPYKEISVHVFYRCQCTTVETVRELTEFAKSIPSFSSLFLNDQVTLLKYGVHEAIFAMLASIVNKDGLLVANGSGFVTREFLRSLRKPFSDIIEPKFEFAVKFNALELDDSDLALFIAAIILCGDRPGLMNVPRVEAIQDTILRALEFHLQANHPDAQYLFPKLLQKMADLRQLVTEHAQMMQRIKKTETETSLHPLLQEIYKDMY
Sequence (P19793 whole entry partner): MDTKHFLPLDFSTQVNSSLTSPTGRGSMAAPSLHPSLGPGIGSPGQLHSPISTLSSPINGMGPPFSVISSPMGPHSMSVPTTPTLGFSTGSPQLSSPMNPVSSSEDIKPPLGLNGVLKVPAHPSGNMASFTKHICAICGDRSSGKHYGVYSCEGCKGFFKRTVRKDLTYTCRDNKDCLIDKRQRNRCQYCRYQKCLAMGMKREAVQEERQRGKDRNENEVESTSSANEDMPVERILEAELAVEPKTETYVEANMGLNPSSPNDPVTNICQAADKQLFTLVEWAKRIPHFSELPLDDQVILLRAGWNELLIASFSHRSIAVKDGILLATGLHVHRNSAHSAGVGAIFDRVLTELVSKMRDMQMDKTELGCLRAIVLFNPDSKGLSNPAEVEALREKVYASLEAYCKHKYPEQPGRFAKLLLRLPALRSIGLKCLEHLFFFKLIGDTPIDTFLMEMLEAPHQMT
Test: PPARδ-RXRα heterodimer ligand activity (luciferase reporter)
Details: transformant of Reference Example 9a of WO03/099793, 36-48 hr, concentration showing 50% of the maximum induction rate
Catalogue of compounds with associated pEC50
By convention, pEC50 is the negative base-10 log of a molar concentration.

STRUCTURE_STRING	MEASURED_PARAMETER	TEST_VALUE
CC(C)Cn1nc(OCCCc2ccc(OC(C)C)cc2Oc2ncc(C(F)(F)F)cc2Cl)cc1CCC(=O)O	pEC50	7.96
CC(C)Oc1ccc(CCCOc2nn(C)cc2CC(=O)O)c(Oc2ncc(C(F)(F)F)cc2Cl)c1	pEC50	8.03
CC(C)Oc1cc(CCCOc2cc(CCC(=O)O)n(-c3ccccc3)n2)cc(COc2ccc(Cl)cc2Cl)c1	pEC50	7.96

Ask: Quick check: pEC50 of CCn1nc(OCCCc2ccc(OC(C)C)cc2Oc2ncc(C(F)(F)F)cc2Cl)cc1CCC(=O)O ?
Result: 8.16

Ask: Quick check: pEC50 of CC(C)Oc1ccc(CCCOc2ncccc2CC(=O)O)c(Oc2ncc(Cl)cc2Cl)c1 ?
Result: 8.12

Ask: Quick check: pEC50 of CC(C)Oc1ccc(CCCOc2nn(Cc3ccccc3)cc2CC(=O)O)c(Oc2ncc(C(F)(F)F)cc2Cl)c1 ?
Result: 8.04

====

Catalogue of compounds with associated melting point

Sample records with melting point:
STRUCTURE_STRING	TEST_VALUE
CCCOc1cc(CCCOc2c(CC(=O)O)cccc2OC)n(Cc2ccc3ccccc3n2)n1	97 to 98 °C
CCCOc1cc(COc2c(CC)cccc2CC(=O)O)n(Cc2ccc3ccccc3n2)n1	110 to 111 °C
CC(C)Oc1cc(CCCOc2cc(CCC(=O)O)n(Cc3ccccc3)n2)n(Cc2ccc(Cl)cc2Cl)n1	123 to 126 °C

Ask: Quick check: melting point of CC(C)c1ncc(CCCOc2nn(C)cc2CC(=O)O)c(Oc2ccc(Cl)cc2Cl)n1 ?
Result: 107 to 108 °C

Ask: Quick check: melting point of CC(C)Oc1cc(Oc2ccc(C(F)(F)F)cn2)ccc1CCCOc1cc(CCC(=O)O)n(C)n1 ?
Result: 128 to 130 °C

Ask: Quick check: melting point of CC(C)Oc1cc(COc2cc(CCC(=O)O)n(-c3ccccc3)n2)cc(COc2ncc(C(F)(F)F)cc2Cl)c1 ?
Result: 140 to 142 °C

Ask: Quick check: melting point of COCOc1cc(CCCOc2nn(Cc3ccccc3)cc2CC(=O)O)n(Cc2ccc(Cl)cc2Cl)n1 ?
Result: 89.5 to 91.5 °C

Ask: Quick check: melting point of Cc1cccc(CC(=O)O)c1OCCCc1cc(OC(C)C)nn1Cc1ccc(Cl)cc1Cl ?
Result: 70 to 71 °C

Ask: Quick check: melting point of CC(C)Cn1nc(OCCCc2ccc(OC(C)C)cc2OCc2ccc(Cl)cc2Cl)cc1CCC(=O)O ?
Result: 133 to 134 °C

Ask: Quick check: melting point of Cc1nc(OCCCc2cc(OC(C)C)nn2Cc2ccc(Cl)cc2Cl)c(CC(=O)O)s1 ?
Result: 75 to 77 °C

Ask: Quick check: melting point of CC(C)c1cc(CCCOc2ncccc2CC(=O)O)n(Cc2ccc(Cl)cc2Cl)n1 ?
Result: 111 to 112 °C

Ask: Quick check: melting point of COc1cccc(CC(=O)O)c1OCc1cc(OC(C)C)nn1Cc1ccc(Cl)cc1Cl ?
Result: 127 to 128 °C

Ask: Quick check: melting point of COc1cccc(CC(=O)O)c1OCc1cc(OCc2ccc3ccccc3n2)n(C(C)C)n1 ?
Result: 84 to 85 °C

Ask: Quick check: melting point of CCOc1cc(COc2cc(CCC(=O)O)n(-c3ccccc3)n2)cc(COc2ccc(Cl)cc2Cl)c1 ?
Result: 151.5 to 152 °C

Ask: Quick check: melting point of CCCOc1cc(CCCOc2c(CC(=O)O)cccc2OC)n(Cc2ccc(F)cc2F)n1 ?
Result: 77 to 80 °C

Ask: Quick check: melting point of CCOc1cccc(CC(=O)O)c1OCCCc1cc(OC(C)C)nn1Cc1ccc(Cl)cc1Cl ?
Result: 132 to 133 °C

Ask: Quick check: melting point of CC(C)Oc1cc(CCCOc2cc(CCC(=O)O)n(-c3ccccc3)n2)n(Cc2ccc(Cl)cc2Cl)n1 ?
Result: 145.5 to 147.5 °C

Ask: Quick check: melting point of CC(C)Oc1ccc(CCCOc2nn(C)cc2CC(=O)O)c(OCc2ccc(Cl)cc2Cl)c1 ?
Result: 102 to 103 °C

Ask: Quick check: melting point of CC(C)c1nc(CCCOc2ncccc2CC(=O)O)c(Cc2ccc(Cl)cc2Cl)s1 ?
Result: 106 to 107 °C

src = patent US20080051418A1
